Target: T1, sRAGE (V-C1-C2) lot LP08062 (human, UniProt Q15109 23-331, limits assumed)
T1 construct: domain: V-C1-C2; also called Human RAGE; LP08062 (Rage)
T1 sequence (Q15109 23-331 limits assumed): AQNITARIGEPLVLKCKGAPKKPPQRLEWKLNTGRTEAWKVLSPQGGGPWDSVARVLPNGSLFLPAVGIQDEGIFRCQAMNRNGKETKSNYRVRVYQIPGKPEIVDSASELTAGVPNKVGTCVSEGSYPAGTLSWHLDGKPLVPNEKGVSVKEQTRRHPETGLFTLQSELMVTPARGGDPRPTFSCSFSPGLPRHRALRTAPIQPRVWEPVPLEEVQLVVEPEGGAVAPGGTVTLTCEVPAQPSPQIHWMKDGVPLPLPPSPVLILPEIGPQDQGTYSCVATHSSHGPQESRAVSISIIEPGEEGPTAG
Assay: SPR (Biacore), mAb captured on anti-mouse Fc, sRAGE 15 nM, Langmuir 1:1
Protocol: The assay is based on a capture assay using immobilized anti-mouse Fc IgG on CM5 chip. For immobilization of anti-Fc antibody HBS-EP was used as running buffer. Standard amine coupling to a CM5 chip was carried out at a contact time of 11 min and a flow rate of 10 μl/min. 10 mM Sodium Acetate pH 5.0 was used as immobilization buffer. The protein concentration (anti-mouse Fc, Biacore BR-1008-38) was 100 μg/mL. […]
Classification field: enter Fulfilled for koff values not below 0.002 s⁻¹, Not fulfilled for values below it.

Binder	Category Label
499 RAGE-1 (antibody, V domains shown, Anti-RAGE monoclonal antibody from a hybridoma, captured by anti-mouse Fc; also called Protein 499 RAGE-1) VH: EVQLQQSGTVLARPGASVKMSCKASGYTFTSYWMHWVKQRPGQGLEWIGAIYPGDSDTYYNQKFKGKAKLTAVTSTSTAYMELSSLTNEDSAVYYCTRNWDYWGQGTTLTVSS VL: DIVMTQSHKFMSTSVGDRVSITCKASQDVSTAVAWYQQKPGQSPKLLIYSASYRYTGVPDRFTGSGSGTDFTFTISSVQAEDLAVYYCQQHYNTPRTFGGGTKLEIK	Not fulfilled
326 RAGE-1 (antibody, V domains shown, Anti-RAGE monoclonal antibody from a hybridoma, captured by anti-mouse Fc; also called LP08137; Protein 326 RAGE-1) VH: EVKLVESGGGLVKPGGSLKLSCAASGFAFSSYDMSWVRQTPEKRLEWVATISSGGSYTSYPDSVQGRFTISRDNARNTLYLQMSSLRSEDTALYYCASSQLPPYAMDYWGQGTSVTVSS VL: DIVMTQSQKFMSTSVGDRVSITCKASQNVGTAVAWYQQKPGQSPKLLIYSASNRYTGVPDRFTGSGSGTDFTLTISNMQSEDLADYFCQQYSSYPLLTFGAGTKLELK	Not fulfilled
529 RAGE-1 (antibody, V domains shown, Anti-RAGE monoclonal antibody from a hybridoma, captured by anti-mouse Fc) VH: EIQLQQTGPELVKPGASVKISCKASGYSFTDYIMLWVKQSHGKSLEWIGNINPYYGSTFYNLKFKGKATLTVDKSSSTAYMQLNSLTSEDSAVYYCARSDYWYFDVWGAGTTVTVSS VL: QAVVTQESALTTSPGETVTLTCRSSTGAVTTSNYANWVQEKPDHLFTGLIGGTNNRSPGVPARFSGSLIGDKAALTITGAQTEDEAIYFCALWYSNHLVFGGGTKLTVL	Not fulfilled
56 RAGE-1 (antibody, V domains shown, Anti-RAGE monoclonal antibody from a hybridoma, captured by anti-mouse Fc; also called LP08103; Protein 56 RAGE-1) VH: QVQLQQSGPELVKPGASVRISCKASGYTFTSYFIHWVKQRPGQGLEWIGWIYPGNVNTKYNEKFKDKATLTADKSSSTAYMQLSNLTSEDSAVYFCVRGQLGDYWGQGITLTVSS VL: DIVMTQSQKFMSTSVGDRVSVTCKASQNVGINVAWYQQKPGQSPKALIYSASYRYSGVPDRFTGSGSGTDFTLIISNVQSEDLAEYFCQQYNNYPRTFGGGTKLEIK	Fulfilled
210 RAGE-1 (antibody, V domains shown, Anti-RAGE monoclonal antibody from a hybridoma, captured by anti-mouse Fc; also called Protein 210 RAGE-1) VH: EIQLQQTGPELVKPGASVKISCKASGYSFTDYIMVWVKQSHGKSLEWIGTINPYYGSTSYNLKFKGKATLTVDKSSSTANMQLNSLTSEDSAVYYCARLRLYAMDYWGQGTSVTVSS VL: QAVVTQESALTTSPGETVTLTCRSSTGAVTTSNYANWVQEKPDHLFTGLIGGTNNRAPGVPARFSGSLIGDKAALTITGAQTEDEAIYFCALWYSNHFWVFGGGTKLTVL	Not fulfilled
316 RAGE-1 (antibody, V domains shown, Anti-RAGE monoclonal antibody from a hybridoma, captured by anti-mouse Fc; also called Protein 316 RAGE-1) VH: QVQLQQSGPELVRPGASVKMSCKASGYTFTSYWMHWVKQRPGQGLEWIGMIDPSNSETRLNQKFKDKATLNVDKSSNTAYMQLSSLTSEDSAVYYCARNFYGSSLRVWGAGTTVTVSS VL: DIVLTQSPASLAVSLGQRATISCRASKSVSISGYSYLHWNQQKPGQSPKLLIYLASNLESGVPARFSGSGSGTDFTLNIHPVEEEDAATYYCQHSRELPYTFGGGTKLEIK	Not fulfilled
501-4 RAGE-1 (antibody, V domains shown, Anti-RAGE monoclonal antibody from a hybridoma, captured by anti-mouse Fc) VH: EVMLVDSGGGLVKPGGSLKLSCAASGFTFRSYAMSWVRQTPEKRLEWVATISSGGSYTYYPDSVRGRFTTSRDNGKNTLYLQMSSLRSEDTAMYYCARHGGNYSAWFTYWGQGTLVTVSA VL: QAVVTQESALTTSPGETVTLTCRSSTGAVTTSNYANWVQEKPDHLFTGLIGGTNNRAPDVPARFSGSLIGDKAALTITGAQTEDEAIYFCALWYSNHWVFGGGTKLTVL	Not fulfilled
183 RAGE-1 (antibody, V domains shown, Anti-RAGE monoclonal antibody from a hybridoma, captured by anti-mouse Fc; also called Protein 183 RAGE-1) VH: EVQLQQSGTVLARPGASVKMSCKASGYSFTSYWMHWVKQRPGQGLEWIGAIFPGNSDTTYNQKFKGKAKLTAVTSASTAYMELSSLTNEDSAVYYCTGLRRGFPYWGQGTLVTVSV VL: NIVMTQSPKSMSMSVGERVTLSCKASENVGTYVSWYQQKPEQSPKLLIYGASNRYTGVPDRFTGSGSATDFTLTISSVQAEDLADYHCGQSYSYPYTFGGGTKLEIK	Fulfilled
130 RAGE-1 (antibody, V domains shown, Anti-RAGE monoclonal antibody from a hybridoma, captured by anti-mouse Fc; also called Protein 130 RAGE-1) VH: EVQLVESGGGLVKPGGSLKLSCAASGFTFSSYVMSWVRQSPEKRLEWVAEISSGGSYTYYPDTVTGRFTISRDNDKNTLYLEMSSLRSEDTAMYYCARPPYGKDAMDYWGQGTSVTVSS VL: QIVLTQSPAIMSASPGEKVTMTCSASSSVSYMHWYQQKSGTSPKRWISDTSKLASGVPARFSGSGSGTSYSLTISSMEAEDAATYYCQQWSSNPPTFGGGTKLEIK	Not fulfilled
